- system_tested: polo-box domain (PBD) of polo-like kinase 1 (PLK1) (UniProt P53350)
- Sequence (P53350 367-603 limits assumed): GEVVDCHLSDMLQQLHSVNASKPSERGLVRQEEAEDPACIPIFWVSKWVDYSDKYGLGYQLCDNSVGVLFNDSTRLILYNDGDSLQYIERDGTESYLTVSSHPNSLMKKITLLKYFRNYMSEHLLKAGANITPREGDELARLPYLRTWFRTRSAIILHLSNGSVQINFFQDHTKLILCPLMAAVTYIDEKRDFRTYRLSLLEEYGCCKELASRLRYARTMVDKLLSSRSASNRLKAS
- test_details: fluorescence polarization competition, displacement of tracer peptide from PLK1 PBD
Square brackets hold non-standard residues; d marks the D form. Ends that are not written are not given here. * marks the point of attachment. Benzoyl(4-octyl) = CCCCCCCCc1ccc(C(=O)*)cc1; pT = C[C@@H](OP(=O)(O)O)[C@H](N)C(=O)O
experimental_readout: IC50 (µM)

[[record]]
binder = "LLCS[pT]PNGL (also called native Cdc25C peptide) [Cdc25C PBD substrate peptide LLCS[pT]PNGL (SEQ ID NO: 1)]"
experimental_readout = "IC50"
display_unit = "µM"
measured_result = 0.17

[[record]]
binder = "S[pT]AI (also: 4-octyl R1 group on C-terminus, 'C-terminal amidated octyl', terminal chemistry unclear) [Compound No. 17, 4-octyl S[pT]AI (SEQ ID NO: 13), R1 group on the C-terminal]"
experimental_readout = "IC50"
display_unit = "µM"
measured_result = 1.49

[[record]]
binder = "{Benzoyl(4-octyl)}-S[pT]PL [Compound No. 16, 4-octyl S[pT]PL (SEQ ID NO: 14)]"
experimental_readout = "IC50"
display_unit = "µM"
measured_result = 1.2

[[record]]
binder = "S[pT]AI (also: 4-nonyl R1 group on C-terminus, 'C-terminal amidated nonyl', terminal chemistry unclear) [Compound No. 18, 4-nonyl S[pT]AI (SEQ ID NO: 13), R1 group on the C-terminal]"
experimental_readout = "IC50"
display_unit = "µM"
measured_result = 1.23

